Entry source: patent US20260070987A1

Molecular target: equine FcRn (large alpha subunit p51) / equine beta-2-microglobulin complex, biotinylated (equine) (UniProt P30441)
Test: SPR (Biacore), pH 6
Classify: Satisfied when Kd is strictly less than 20 nM; Not satisfied when Kd is not.

Binder: equine IgG1 G426K (antibody, part only; not given: Variable domains, not shown: another chain or arm of the molecule) constant: ASTTAPKVFALAPGCGTTSDSTVALGCLVSGYFPEPVKVSWNSGSLTSGVHTFPSVLQSSGFYSLSSMVTVPASTWTSETYICNVVHAASNFKVDKRIEPIPDNHQKVCDMSKCPKCPAPELLGGPSVFIFPPNPKDTLMITRTPEVTCVVVDVSQENPDVKFNWYMDGVEVRTATTRPKEEQFNSTYRVVSVLRIQHQDWLSGKEFKCKVNNQALPQPIERTITKTKGRSQEPQVYVLAPHPDELSKSKVSVTCLVKDFYPPEINIEWQSNGQPELETKYSTTQAQQDSDGSYFLYSKLSVDRNRWQQGTTFTCKVMHEALHNHYTQKNVSKNPGK
Classification: Satisfied
//
Binder: equine IgG1 T286D (antibody, part only; not given: variable domains, not shown: another chain or arm of the molecule) constant: ASTTAPKVFALAPGCGTTSDSTVALGCLVSGYFPEPVKVSWNSGSLTSGVHTFPSVLQSSGFYSLSSMVTVPASTWTSETYICNVVHAASNFKVDKRIEPIPDNHQKVCDMSKCPKCPAPELLGGPSVFIFPPNPKDTLMITRTPEVTCVVVDVSQENPDVKFNWYMDGVEVRDATTRPKEEQFNSTYRVVSVLRIQHQDWLSGKEFKCKVNNQALPQPIERTITKTKGRSQEPQVYVLAPHPDELSKSKVSVTCLVKDFYPPEINIEWQSNGQPELETKYSTTQAQQDSDGSYFLYSKLSVDRNRWQQGTTFTCGVMHEALHNHYTQKNVSKNPGK
Classification: Not satisfied
//
Binder: equine IgG4 N434W (antibody, part only; not given: variable domains, not shown: another chain or arm of the molecule) constant: ASTTAPKVFPLASHSAATSGSTVALGCLVSSYFPEPVTVSWNSGALTSGVHTFPSVLQSSGLYSLSSMVTVPASSLKSQTYICNVAHPASSTKVDKKIVIKECNGGCPAECLQVGPSVFIFPPKPKDVLMISRTPTVTCVVVDVGHDFPDVQFNWYVDGVETHTATTEPKQEQFNSTYRVVSVLPIQHKDWLSGKEFKCKVNNKALPAPVERTISKPTGQPREPQVYVLAPHRDELSKNKVSVTCLVKDFYPTDIDIEWKSNGQPEPETKYSTTPAQLDSDGSYFLYSKLTVETNRWQQGTTFTCAVMHEALHWHYTEKSVSKSPGK
Classification: Satisfied
//
Binder: equine IgG1 Y436T (antibody, part only; not given: variable domains, not shown: another chain or arm of the molecule) constant: ASTTAPKVFALAPGCGTTSDSTVALGCLVSGYFPEPVKVSWNSGSLTSGVHTFPSVLQSSGFYSLSSMVTVPASTWTSETYICNVVHAASNFKVDKRIEPIPDNHQKVCDMSKCPKCPAPELLGGPSVFIFPPNPKDTLMITRTPEVTCVVVDVSQENPDVKFNWYMDGVEVRTATTRPKEEQFNSTYRVVSVLRIQHQDWLSGKEFKCKVNNQALPQPIERTITKTKGRSQEPQVYVLAPHPDELSKSKVSVTCLVKDFYPPEINIEWQSNGQPELETKYSTTQAQQDSDGSYFLYSKLSVDRNRWQQGTTFTCGVMHEALHNHTTQKNVSKNPGK
Classification: Satisfied
//
Binder: equine IgG1 D312K (antibody, part only; not given: variable domains, not shown: another chain or arm of the molecule) constant: ASTTAPKVFALAPGCGTTSDSTVALGCLVSGYFPEPVKVSWNSGSLTSGVHTFPSVLQSSGFYSLSSMVTVPASTWTSETYICNVVHAASNFKVDKRIEPIPDNHQKVCDMSKCPKCPAPELLGGPSVFIFPPNPKDTLMITRTPEVTCVVVDVSQENPDVKFNWYMDGVEVRTATTRPKEEQFNSTYRVVSVLRIQHQKWLSGKEFKCKVNNQALPQPIERTITKTKGRSQEPQVYVLAPHPDELSKSKVSVTCLVKDFYPPEINIEWQSNGQPELETKYSTTQAQQDSDGSYFLYSKLSVDRNRWQQGTTFTCGVMHEALHNHYTQKNVSKNPGK
Classification: Satisfied
//
Binder: equine IgG1 D312S (antibody, part only; not given: variable domains, not shown: another chain or arm of the molecule) constant: ASTTAPKVFALAPGCGTTSDSTVALGCLVSGYFPEPVKVSWNSGSLTSGVHTFPSVLQSSGFYSLSSMVTVPASTWTSETYICNVVHAASNFKVDKRIEPIPDNHQKVCDMSKCPKCPAPELLGGPSVFIFPPNPKDTLMITRTPEVTCVVVDVSQENPDVKFNWYMDGVEVRTATTRPKEEQFNSTYRVVSVLRIQHQSWLSGKEFKCKVNNQALPQPIERTITKTKGRSQEPQVYVLAPHPDELSKSKVSVTCLVKDFYPPEINIEWQSNGQPELETKYSTTQAQQDSDGSYFLYSKLSVDRNRWQQGTTFTCGVMHEALHNHYTQKNVSKNPGK
Classification: Satisfied
//
Binder: equine IgG4 A426R (antibody, part only; not given: variable domains, not shown: another chain or arm of the molecule) constant: ASTTAPKVFPLASHSAATSGSTVALGCLVSSYFPEPVTVSWNSGALTSGVHTFPSVLQSSGLYSLSSMVTVPASSLKSQTYICNVAHPASSTKVDKKIVIKECNGGCPAECLQVGPSVFIFPPKPKDVLMISRTPTVTCVVVDVGHDFPDVQFNWYVDGVETHTATTEPKQEQFNSTYRVVSVLPIQHKDWLSGKEFKCKVNNKALPAPVERTISKPTGQPREPQVYVLAPHRDELSKNKVSVTCLVKDFYPTDIDIEWKSNGQPEPETKYSTTPAQLDSDGSYFLYSKLTVETNRWQQGTTFTCRVMHEALHNHYTEKSVSKSPGK
Classification: Not satisfied
//
Binder: equine IgG4 M428K (antibody, part only; not given: variable domains, not shown: another chain or arm of the molecule) constant: ASTTAPKVFPLASHSAATSGSTVALGCLVSSYFPEPVTVSWNSGALTSGVHTFPSVLQSSGLYSLSSMVTVPASSLKSQTYICNVAHPASSTKVDKKIVIKECNGGCPAECLQVGPSVFIFPPKPKDVLMISRTPTVTCVVVDVGHDFPDVQFNWYVDGVETHTATTEPKQEQFNSTYRVVSVLPIQHKDWLSGKEFKCKVNNKALPAPVERTISKPTGQPREPQVYVLAPHRDELSKNKVSVTCLVKDFYPTDIDIEWKSNGQPEPETKYSTTPAQLDSDGSYFLYSKLTVETNRWQQGTTFTCAVKHEALHNHYTEKSVSKSPGK
Classification: Not satisfied
